The reported numbers originate from the supplement of paper PMC10567573.

B1: CSNK1G1 (parent)
chain: GSLPWQGLKADTLKERYQKIGDTK

Variants of: B1
Test: protein stability index of a GFP-peptide fusion (GPS, HEK-293T) (PSI 1-6); higher = more stable;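 also: lentivirally expressed fusions sorted by FACS into six bins by GFP to DsRed ratio, PSI derived from sequencing read proportions per bin multiplied by bin number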
Conditions: c terminus: a fixed tail appended
MEASURED_ATTRIBUTE: protein stability index
Give bare numbers.

Solved entries:
Entry W5N has what protein stability index?
4.97

Further, for Q6S ?
3.98

Further, for P4Q ?
4.3

Further, for D11K ?
3.93

Further, for R16V ?
4.25

Further, for G7C ?
3.4

Further, for L13Y ?
3.72

Further, for S2V ?
3.35

Further, for E15R ?
3.98

Further, for Y17S ?
4.45

Next up:
Entry G7W has what protein stability index?
3.52
